target: Dimer of Gag-Pol polyprotein [489-587] (Human immunodeficiency virus 1, UniProt P12497); construct: 489-587; assay: Protease Inhibition Assay
Binning of IC50 into classes: lower segment (below 3 nM), middle segment (3 nM to below 7 nM), upper segment (7 nM or more)

### Prompt Class (by measured IC50) for Cc1cc(SC2C(=O)CC(CCc3ccccc3)(C(C)C)OC2=O)c(C(C)(C)C)cc1NS(=O)(=O)c1cccnc1 (stereo not drawn)
### Response middle segment

### Prompt Class (by measured IC50) for Cc1cc(SC2C(=O)CC(CCc3ccc(N)cc3)(C(C)C)OC2=O)c(C(C)(C)C)cc1OS(=O)(=O)c1cccc(-c2cccnc2)c1 (stereo not drawn)
### Response middle segment

### Prompt Class (by measured IC50) for Cc1cc(SC2C(=O)CC(CCc3ccc(O)cc3)(C(C)C)OC2=O)c(C(C)(C)C)cc1OS(C)(=O)=O (stereo not drawn)
### Response lower segment

### Prompt Class (by measured IC50) for Cc1cc(SC2C(=O)CC(CCc3ccc(O)cc3)(C(C)C)OC2=O)c(C(C)(C)C)cc1OS(=O)(=O)c1ccc(F)cc1 (stereo not drawn)
### Response upper segment

### Prompt Class (by measured IC50) for Cc1cc(SC2C(=O)CC(CCc3ccccc3)(C(C)C)OC2=O)c(C(C)(C)C)cc1OS(=O)(=O)c1ccccn1 (stereo not drawn)
### Response middle segment

### Prompt Class (by measured IC50) for Cc1cc(SC2C(=O)CC(CCc3ccc(O)cc3)(C(C)C)OC2=O)c(C(C)(C)C)cc1NS(=O)(=O)N(C)C (stereo not drawn)
### Response middle segment

### Prompt Class (by measured IC50) for Cc1cc(SC2C(=O)CC(CCc3ccc(O)cc3)(C(C)C)OC2=O)c(C(C)(C)C)cc1OS(=O)(=O)c1ccccn1 (stereo not drawn)
### Response middle segment

### Prompt Class (by measured IC50) for Cc1cc(SC2C(=O)CC(CCc3ccc(O)cc3)(C(C)C)OC2=O)c(C(C)(C)C)cc1OS(=O)(=O)c1cccs1 (stereo not drawn)
### Response upper segment

### Prompt Class (by measured IC50) for CCCC1(CCc2ccc(O)cc2)CC(=O)C(Sc2cc(C)c(OS(=O)(=O)c3nccn3C)cc2C(C)(C)C)C(=O)O1 (stereo not drawn)
### Response lower segment

### Prompt Class (by measured IC50) for Cc1cc(SC2C(=O)CC(C)(CCc3ccc(O)cc3)OC2=O)c(C(C)(C)C)cc1OS(=O)(=O)c1ccc(F)cc1 (stereo not drawn)
### Response upper segment

### Prompt Class (by measured IC50) for Cc1cc(SC2C(=O)CC(CCc3ccc(O)cc3)(CC(C)C)OC2=O)c(C(C)(C)C)cc1OS(=O)(=O)c1nccn1C (stereo not drawn)
### Response middle segment

### Prompt Class (by measured IC50) for Cc1cc(SC2C(=O)CC(CCc3ccc(O)cc3)(C(C)C)OC2=O)c(C(C)(C)C)cc1OS(=O)(=O)c1nccn1C (stereo not drawn)
### Response lower segment

### Prompt Class (by measured IC50) for Cc1cc(SC2C(=O)CC(CCc3ccc(O)cc3)(C(C)C)OC2=O)c(C(C)(C)C)cc1OS(=O)(=O)c1cccnc1 (stereo not drawn)
### Response middle segment

### Prompt Class (by measured IC50) for Cc1cc(SC2C(=O)CC(CCc3ccc(O)cc3)(C3CCCCC3)OC2=O)c(C(C)(C)C)cc1OS(=O)(=O)c1ccc(F)cc1 (stereo not drawn)
### Response upper segment

### Prompt Class (by measured IC50) for Cc1cc(SC2C(=O)CC(CCc3ccc(N)cc3)(C(C)C)OC2=O)c(C(C)(C)C)cc1OS(=O)(=O)c1ccc(C#N)cc1 (stereo not drawn)
### Response lower segment

### Prompt Class (by measured IC50) for Cc1cc(SC2C(=O)CC(C)(CCc3ccc(O)cc3)OC2=O)c(C(C)(C)C)cc1OS(=O)(=O)c1ccccc1 (stereo not drawn)
### Response upper segment

* * *

target: Dimer of Gag-Pol polyprotein [489-587] (Human immunodeficiency virus 1); construct: 489-587; experiment: Protease Inhibition Assay; details: pH 6.2; 37 °C
Simple rule here: IC50 less than 9 nM is Fulfilled, otherwise Not fulfilled.

Consider the following illustrative entries.
| molecule | discreteLabel |
| --- | --- |
| Cc1cc(SC2C(=O)CC(C)(CCc3ccc(O)cc3)OC2=O)c(C(C)(C)C)cc1NS(=O)(=O)c1ccc(C(F)(F)F)cc1 (stereo not drawn) | Not fulfilled |
| Cc1cc(SC2C(=O)CC(C)(CCc3ccc(O)cc3)OC2=O)c(C(C)(C)C)cc1NS(=O)(=O)c1ccc(Cl)cc1 (stereo not drawn) | Fulfilled |
| Cc1cc(SC2C(=O)CC(C)(CCc3ccc(O)cc3)OC2=O)c(C(C)(C)C)cc1NS(C)(=O)=O (stereo not drawn) | Not fulfilled |

### Prompt Check if IC50 falls below 9 nM for Cc1cc(SC2C(=O)CC(CCc3ccc(O)cc3)(C(C)C)OC2=O)c(C(C)(C)C)cc1NS(=O)(=O)c1ccc(Cl)cc1 (stereo not drawn) .
### Response Fulfilled

### Prompt Check if IC50 falls below 9 nM for Cc1cc(SC2C(=O)CC(CCc3ccc(O)cc3)(C(C)C)OC2=O)c(C(C)(C)C)cc1NS(=O)(=O)c1cccs1 (stereo not drawn) .
### Response Fulfilled

### Prompt Check if IC50 falls below 9 nM for Cc1cc(SC2C(=O)CC(C)(CCc3ccc(O)cc3)OC2=O)c(C(C)(C)C)cc1NS(=O)(=O)c1ccc(F)cc1 (stereo not drawn) .
### Response Fulfilled

### Prompt Check if IC50 falls below 9 nM for Cc1cc(SC2C(=O)CC(CCc3ccc(O)cc3)(C(C)C)OC2=O)c(C(C)(C)C)cc1N (stereo not drawn) .
### Response Fulfilled

* * *

molecular target: Gag-Pol polyprotein [489-587] (Human immunodeficiency virus 1)
recordedMetric: Ki (nM)
Write the value in nM as a bare number.

Sample records with Ki:
| compound | Ki (nM) |
| --- | --- |
| Cc1cc(SC2C(=O)C[C@@](CCc3ccc(O)cc3)(C(C)C)OC2=O)c(C(C)(C)C)cc1OS(C)(=O)=O (some centres not stated) | 0.03 |
| Cc1cc(SC2C(=O)CC(CCc3ccccc3)(C(C)C)OC2=O)c(C(C)(C)C)cc1NS(=O)(=O)c1ccc(C(F)(F)F)cc1 (configuration not stated) | 27 |
| Cc1cc(SC2C(=O)CC(CCc3ccc(O)cc3)(C(C)C)OC2=O)c(C(C)(C)C)cc1NS(=O)(=O)c1ccccc1 (configuration not stated) | 0.53 |
| Cc1cc(SC2C(=O)CC(CCc3ccc(O)cc3)(C(C)C)OC2=O)c(C(C)(C)C)cc1NS(=O)(=O)c1ccc(C#N)cc1 (configuration not stated) | 0.41 |
| Cc1cc(SC2C(=O)CC(CCc3ccc(O)cc3)(C(C)C)OC2=O)c(C(C)(C)C)cc1N (configuration not stated) | 0.67 |
| Cc1cc(SC2C(=O)CC(CCc3ccccc3)(C(C)C)OC2=O)c(C(C)(C)C)cc1O (configuration not stated) | 1.1 |

### Prompt # return Ki of Cc1cc(SC2C(=O)CC(CCc3ccccc3)(C(C)C)OC2=O)c(C(C)(C)C)cc1OS(=O)(=O)c1ccc(C#N)cc1 (configuration not stated) (system: Gag-Pol polyprotein [489-587] (Human immunodeficiency virus 1))
### Response 0.7

* * *

molecular target: Gag-Pol polyprotein [489-587] (Human immunodeficiency virus 1)
# Ki per record follows

| molecule | assayedTarget | measValue |
| --- | --- | --- |
| Cc1cc(SC2C(=O)C[C@@](CCc3ccc(O)cc3)(C(C)C)OC2=O)c(C(C)(C)C)cc1NS(=O)(=O)c1ccc(C(F)(F)F)cn1 (some centres not stated) | Gag-Pol polyprotein [489-587] (Human immunodeficiency virus 1) | 0.39 nM |
| Cc1cc(SC2C(=O)C[C@@](CCc3ccc(O)cc3)(C(C)C)OC2=O)c(C(C)(C)C)cc1N (some centres not stated) | Gag-Pol polyprotein [489-587] (Human immunodeficiency virus 1) | 13 nM |
| Cc1cc(SC2C(=O)CC(CCc3ccccc3)(C(C)C)OC2=O)c(C(C)(C)C)cc1NS(C)(=O)=O (configuration not stated) | Gag-Pol polyprotein [489-587] (Human immunodeficiency virus 1) | 0.83 nM |
| Cc1cc(SC2C(=O)CC(CCc3ccccc3)(C(C)C)OC2=O)c(C(C)(C)C)cc1NS(=O)(=O)c1cccc(C#N)c1 (configuration not stated) | Gag-Pol polyprotein [489-587] (Human immunodeficiency virus 1) | 1.4 nM |
| Cc1cc(SC2C(=O)C[C@@](CCc3ccccc3)(C(C)C)OC2=O)c(C(C)(C)C)cc1NS(=O)(=O)c1ccc(C#N)cc1 (some centres not stated) | Gag-Pol polyprotein [489-587] (Human immunodeficiency virus 1) | 0.2 nM |

### Prompt # return Ki of Cc1cc(SC2C(=O)C[C@@](CCc3ccccc3)(C(C)C)OC2=O)c(C(C)(C)C)cc1NS(=O)(=O)c1ccc(C(F)(F)F)cn1 (some centres not stated) (system: Gag-Pol polyprotein [489-587] (Human immunodeficiency virus 1))
### Response 6.4 nM

### Prompt # return Ki of Cc1cc(SC2C(=O)CC(CCc3ccc(O)cc3)(C(C)C)OC2=O)c(C(C)(C)C)cc1NS(=O)(=O)c1cccc(C#N)c1 (configuration not stated) (system: Gag-Pol polyprotein [489-587] (Human immunodeficiency virus 1))
### Response 0.21 nM
